pIC50: −log10 of the molar value.
Assembled from different publications: pIC50 for Serine/threonine-protein kinase B-raf (Homo sapiens, UniProt P15056).

Field: example entries. Status: answers known.
N#Cc1cc(NC(=O)Nc2ccc(Oc3ccnc(NC(=O)C4CC4)c3)c(F)c2)cc(C(F)(F)F)c1: 7.06
O=C(c1c(F)ccc(NS(=O)(=O)c2ccc3nsnc3c2)c1F)c1c[nH]c2ncc(Cl)cc12: ≥ 5.00
Cc1cc(NC(=O)Nc2cc(C(C)(F)F)ccc2F)ccc1Oc1cc(NC(=O)C2CC2)ncn1: 6.95
O=C(Nc1cnc(Oc2ccnc(NC(=O)C3CC3)c2)c(F)c1)Nc1ccc(Cl)c(C(F)(F)F)c1: 8.04

## Task Provide value of pIC50 for this record tested with Serine/threonine-protein kinase B-raf (Homo sapiens, UniProt P15056): Cc1cc(NC(=O)Nc2ccc(F)c(C(F)(F)F)c2)ccc1Oc1ccnc(NC(=O)C2CC2)c1
## Result 7.68

## Task Request - read-out pIC50 | tested on Serine/threonine-protein kinase B-raf (Homo sapiens, UniProt P15056) | compound CCCS(=O)(=O)Nc1ccc(F)c(C(=O)c2c[nH]c3ncc(-c4ccc(S(=O)(=O)CC)cc4)cc23)c1F
## Result > 7.00

## Task So what pIC50 did Nc1ncnc2c1c(-c1ccc(Oc3ccccc3)cc1)nn2C[C@@H]1SSC[C@@H]1O get with Serine/threonine-protein kinase B-raf (Homo sapiens, UniProt P15056)?
## Result 5.00 to 6.00

## Task # returns recorded pIC50 (system: Serine/threonine-protein kinase B-raf (Homo sapiens, UniProt P15056)) for Cn1cc(-c2cnc3[nH]cc(C(=O)c4c(F)ccc(NS(=O)(=O)C5CC5)c4F)c3c2)cn1
## Result ≥ 5.00

## Task Param readout = pIC50; param system = Serine/threonine-protein kinase B-raf (Homo sapiens, UniProt P15056); param query = O=C(c1cc(NS(=O)(=O)c2ccc(OC(F)(F)F)cc2)ccc1F)c1c[nH]c2ncc(Cl)cc12 ; response: value
## Result ≥ 5.00

## Task State its pIC50 on Serine/threonine-protein kinase B-raf (Homo sapiens, UniProt P15056): C#CCN(Cc1cnc2nc(N)nc(N)c2n1)c1ccc(C(=O)NC(CCC(=O)O)C(=O)O)cc1C (stereo not shown)
## Result 5.30

====

The entries below pair molecules with IC50 values for Serine/threonine-protein kinase B-raf (Homo sapiens), as found in several publications.

Solved entries:
CCCS(=O)(=O)Nc1ccc(F)c(C(=O)c2c[nH]c3ncc(C(=O)NCCO)cc23)c1F: ≤ 10 µM
CCCS(=O)(=O)Nc1ccc(F)c(C(=O)c2c[nH]c3ncc(-c4ccc(OCCCN(CC)CC)nc4)cc23)c1F: ≤ 10 µM
CCCS(=O)(=O)Nc1ccc(F)c(C(=O)c2c[nH]c3ncc(C(=O)N(C)C)cc23)c1F: ≤ 10 µM
CN1CCC(Nc2cc(NC(=O)Nc3ccc(Oc4ccnc(NC(=O)C5CC5)c4)nc3)cc(C(F)(F)F)c2)CC1: 0.0125 µM
Cc1cnc2[nH]cc(C(=O)c3c(F)ccc(NS(=O)(=O)N(C)C)c3F)c2c1: ≤ 10 µM

## Task Value wanted: IC50 (Serine/threonine-protein kinase B-raf (Homo sapiens)) of entry O=C(c1cc(NS(=O)(=O)c2ccc(C(F)(F)F)cc2)ccc1F)c1c[nH]c2ncc(Cl)cc12
## Result ≤ 10 µM

## Task Form field: IC50 recorded for COc1ccnc2[nH]cc(C(=O)c3c(F)ccc(NS(=O)(=O)C4CCC4)c3F)c12 with Serine/threonine-protein kinase B-raf (Homo sapiens) (enter value)
## Result ≤ 10 µM

## Task Give recorded IC50 with Serine/threonine-protein kinase B-raf (Homo sapiens) for the following molecule: CCCS(=O)(=O)Nc1cc(F)c(F)c(C(=O)c2ccc3ncc(-c4ccc(C)nc4)nc3c2)c1F
## Result < 0.05 µM
